- target system: SSTR2 (Homo sapiens, UniProt P30874)
- Sequence (P30874 whole entry): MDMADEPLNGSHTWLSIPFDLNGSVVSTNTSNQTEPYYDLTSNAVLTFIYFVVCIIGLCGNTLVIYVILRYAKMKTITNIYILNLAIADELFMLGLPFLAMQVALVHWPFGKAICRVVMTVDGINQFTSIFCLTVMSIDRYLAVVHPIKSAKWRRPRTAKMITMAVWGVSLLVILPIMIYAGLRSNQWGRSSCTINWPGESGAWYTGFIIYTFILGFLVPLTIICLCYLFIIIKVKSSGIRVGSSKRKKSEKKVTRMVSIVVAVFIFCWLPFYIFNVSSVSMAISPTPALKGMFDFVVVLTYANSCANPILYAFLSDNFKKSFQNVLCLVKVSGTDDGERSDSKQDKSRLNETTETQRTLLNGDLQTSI
- assay procedure: SSTR binding affinity by radioligand binding competition assay ([125I]-Tyr11-Somatostatin, membrane extracts)
- test settings: SSTR2 Ki, radioligand competition, [125I]-Tyr11-Somatostatin 0.1 nM, membrane extracts; Ki from IC50 by Cheng Prusoff
Square brackets hold non-standard residues; d marks the D form. Peptide text beside a SMILES is read from it. * marks the point of attachment. DOTA(Lu)NH(CH2)6NHCOCH2 = O=C(CN1CCN2CCN3CCN(CC1)CC(=O)[O][Lu]([O]C(=O)C2)[O]C(=O)C3)NCCCCCCNC(=O)C*; NMeC = CN[C@@H](CS)C(=O)O
measured attribute: Ki

compound	Ki
C[C@@H](O)[C@@H]1NC(=O)[C@H](CCCCN)NC(=O)[C@H](Cc2c[nH]c3ccccc23)NC(=O)[C@H](Cc2ccc(O)cc2)NC(=O)[C@H](CCSCC(=O)NCCCCCCNC(=O)CN2CCN3CCN4CCN(CC2)CC(=O)[O][Lu]([O]C(=O)C3)[O]C(=O)C4)N(C)C(=O)[C@H](Cc2ccccc2)NC1=O [RB-0005907]	3.33 to 10 nM
C[C@@H](O)[C@@H]1NC(=O)[C@H](CCCCN)NC(=O)[C@@H](Cc2c[nH]c3ccccc23)NC(=O)[C@H](Cc2ccc(O)cc2)NC(=O)[C@H](CCCCNC(=O)[C@H]2CC[C@H](CNC(=O)CN3CCN4CCN5CCN(CC3)CC(=O)[O][Lu]([O]C(=O)C4)[O]C(=O)C5)CC2)N(C)C(=O)[C@H](Cc2ccccc2)NC1=O	1 to 3.33 nM
C[C@@H](O)[C@@H]1NC(=O)[C@@H](CCCCN)NC(=O)[C@@H](Cc2c[nH]c3ccccc23)NC(=O)[C@H](Cc2ccc(O)cc2)NC(=O)[C@H](CCSCC(=O)NCCCCCCNC(=O)CN2CCN3CCN4CCN(CC2)CC(=O)[O][Lu]([O]C(=O)C3)[O]C(=O)C4)N(C)C(=O)[C@H](Cc2ccccc2)NC1=O	10 to 33.3 nM

Name the recorded Ki of the item C[C@@H](O)[C@@H]1NC(=O)[C@H](CCCCN)NC(=O)[C@H](Cc2c[nH]c3ccccc23)NC(=O)[C@H](Cc2ccc(O)cc2)NC(=O)[C@H](CCSCC(=O)NCCCCCCNC(=O)CN2CCN3CCN4CCN(CC2)CC(=O)[O][Lu]([O]C(=O)C3)[O]C(=O)C4)N(C)C(=O)[C@H](Cc2ccccc2)NC1=O [RB-0005905] in your answer.
< 1 nM

Could you please provide reported Ki for CC(C)[C@@H]1NC(=O)[C@H](CCCCN)NC(=O)[C@@H](Cc2c[nH]c3ccccc23)NC(=O)[C@H](Cc2ccc(O)cc2)NC(=O)[C@H](CSCC(=O)NCCCCCCNC(=O)CN2CCN3CCN4CCN(CC2)CC(=O)[O][Lu]([O]C(=O)C3)[O]C(=O)C4)N(C)C(=O)[C@H](Cc2ccccc2)NC1=O [RB-0002674] (cyclo(F[NMeC](DOTA(Lu)NH(CH2)6NHCOCH2)Y[dW]KV)) ? Thanks!
1 to 3.33 nM

Input "C[C@@H](O)[C@@H]1NC(=O)[C@H](CCCCN)NC(=O)[C@@H](Cc2c[nH]c3ccccc23)NC(=O)[C@H](Cc2ccc(O)cc2)NC(=O)[C@H](CCCCNC(=O)CCCCCCCNC(=O)CN2CCN3CCN4CCN(CC2)CC(=O)[O][Lu]([O]C(=O)C3)[O]C(=O)C4)N(C)C(=O)[C@H](Cc2ccccc2)NC1=O" , output reported Ki.
1 to 3.33 nM
